I'd appreciate it if you could supply thermal shift delta Tm values for the items below.
# Tested on: LOC_OS07G06570-cb004
# Method: thermal shift delta Tm vs DMSO control; higher = stronger stabilization (binding);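 note: purified Escherichia coli-expressed rice kinase domain construct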
# Test Settings: 12.5 µM; protein concentration 2 µM
The response must be a number in °C with no trailing unit.

Quick one: thermal shift delta Tm of `COc1ccc(CNC(=O)Nc2ncc([N+](=O)[O-])s2)cc1` ?
0.68

Follow-up item: `COc1cc(N2CCC(N(C)C)CC2)ccc1Nc1ncc(Cl)c(Nc2ccccc2P(C)(C)=O)n1`
1.14

Follow-up item: `CCN1C(=O)CNc2ncc(-c3ccc(-c4nc[nH]n4)nc3C)nc21`
0.95

Follow-up item: `c1cncc(CN2CCC(n3ncc4c(N5CCOCC5)nc(-c5ccc6[nH]ccc6c5)nc43)CC2)c1`
0.64

Follow-up item: Cc1cc(Nc2ncnc3ccc(-c4ccc(CNCCS(C)(=O)=O)o4)cc23)ccc1Oc1ccn2ncnc2c1 [HER2-Inhibitor-1]
1.57

Follow-up item: `O=C1NC(=O)/C(=C/c2ccc3c(c2)OC(F)(F)O3)S1`
0.31

Follow-up item: C[C@@H]1CN(C(=O)c2ccc(NC(=O)c3cc(O[C@H](C)c4c(Cl)ccc(F)c4Cl)c(N)nn3)cc2)C[C@H](C)N1 [Ensartinib (X-396)]
0.36

Follow-up item: Cc1nc(Nc2ncc(C(=O)Nc3c(C)cccc3Cl)s2)cc(N2CCN(CCO)CC2)n1 [Dasatinib]
1.03

Follow-up item: O=C(c1ccc(F)c(F)c1Nc1ccc(I)cc1F)N1CC(O)([C@@H]2CCCCN2)C1 [Cobimetinib (GDC-0973, RG7420)]
1.59

====

# System: LOC_OS02G17970-cb001
# Method: thermal shift delta Tm vs DMSO control; higher = stronger stabilization (binding)
# Test Settings: 12.5 µM; protein concentration 2 µM
I'd appreciate it if you could supply thermal shift delta Tm values for the items below.
The response must be a number in °C with no trailing unit.

Quick one: thermal shift delta Tm of C=CC(=O)Nc1cc(Nc2nccc(-c3cn(C)c4ccccc34)n2)c(OC)cc1N(C)CCN(C)C [Osimertinib (AZD9291)] ?
-0.32

Follow-up item: `CC(C)(C)NC(=O)c1cncn1C1CCN(c2ccc(-c3nnc(C(F)(F)F)o3)cn2)CC1`
-0.2

Follow-up item: COc1cc2c(cc1OC)[C@@H]1C(=O)c3ccc4c(c3O[C@@H]1CO2)C=CC(C)(C)O4 [Deguelin]
1.35

Follow-up item: `O=C(NCCCNc1nc(Nc2cccc(NC(=O)N3CCCC3)c2)ncc1I)c1cccs1`
0.49

Follow-up item: CN1CCN(c2ccc3nc(-c4c(N)c5c(F)cccc5[nH]c4=O)[nH]c3c2)CC1 [Dovitinib (TKI258) Lactate]
2

Follow-up item: `COc1ccc2c(Oc3ccc(NC(=O)c4c(C)n(CC(C)(C)O)n(-c5ccccc5)c4=O)nc3)ccnc2c1`
0.76

Follow-up item: Nc1nc2cc(-c3ccc4ncc(C(=O)N5CCOCC5)n4c3)ccc2o1 [Serabelisib (INK-1117,MLN-1117,TAK-117)]
0.23

Follow-up item: `Fc1ccc2[nH]ccc2c1-c1nc(N2CCOCC2)c2sc(CN3CCN(CC4CC4)CC3)cc2n1`
0.68

====

# Tested on: LOC_OS01G67340-cb003
# Method: thermal shift delta Tm vs DMSO control; higher = stronger stabilization (binding)
# Test Settings: 12.5 µM; protein concentration 2 µM
Where a name gives a salt, the structure may show the parent alone.
Quantity Name: thermal shift delta Tm (°C)
The response must be a number in °C with no trailing unit.

Quick one: thermal shift delta Tm of OC1CCC(Oc2cccc3cnc(Nc4ccc5nc[nH]c5c4)nc23)CC1 (centres undefined) ?
5.84

Follow-up item: `CN(C)CCOc1ccc(-c2nc(-c3ccncc3)c(-c3ccc4c(c3)CC/C4=N\O)[nH]2)cc1`
-0.45

Follow-up item: `Cc1cc(C(=O)NOCCO)c(Nc2ccc(I)cc2F)n(C)c1=O`
-0.42

Follow-up item: Cc1ccc(NC(=O)c2ccc(CN3CCN(C)CC3)cc2)cc1Nc1nccc(-c2cccnc2)n1 [Imatinib Mesylate (STI571)]
-0.58

Follow-up item: `C[C@@]1(C(=O)Nc2ccc(F)nc2)CCCN1c1nc(Nc2cc(C3CC3)n[nH]2)c2cccn2n1`
-0.49

Follow-up item: `O=C(Nc1cccc(Nc2ncc(Br)c(NCCc3cnc[nH]3)n2)c1)N1CCCC1`
2

Follow-up item: `Oc1ccc(Nc2nc(-c3ccc(Cl)cc3)cs2)cc1`
0.86

Follow-up item: C1=N/C2=N/c3ccc(OCCN4CCCC4)c(c3)COC/C=C/COCc3cccc(c3)C(=C1)N2 [Pacritinib (SB1518)]
1.79

Follow-up item: CC(C)CCN1c2nc(Nc3cc(F)c(O)c(F)c3)ncc2N(C)C(=O)C1C (centres undefined)
8.73

Follow-up item: `Nc1nc(N)c2nc(-c3cccc(O)c3)c(-c3cccc(O)c3)nc2n1`
-0.24

Follow-up item: CNC(=O)c1cc(Oc2ccc(NC(=O)Nc3cc(C(C)(C)C)nn3-c3ccc4ncccc4c3)c(F)c2)ccn1 [Rebastinib (DCC-2036)]
0.32

Follow-up item: `CC(C)(C)NC(=O)c1cncn1C1CCN(c2ccc(-c3nnc(C(F)(F)F)o3)cn2)CC1`
0.05

Follow-up item: CNC(=O)c1cc(Oc2ccc(NC(=O)Nc3ccc(Cl)c(C(F)(F)F)c3)cc2)ccn1 [Sorafenib]
1.48

Follow-up item: `Cn1cc(-c2ccc3c(c2)CCN3C(=O)Cc2cccc(C(F)(F)F)c2)c2c(N)ncnc21`
3.52

Follow-up item: CC(C)(C)c1cc(NC(=O)Nc2ccc(-c3cn4c(n3)sc3cc(OCCN5CCOCC5)ccc34)cc2)no1 [Quizartinib (AC220)]
0.36

Follow-up item: Cc1cc(C(=O)Nc2nc3cccc(Cl)c3n2[C@@H]2CCCCN(C(=O)/C=C/CN(C)C)C2)ccn1 [Nazartinib (EGF816, NVS-816)]
1.06

Follow-up item: `C=CC(=O)Nc1ccc(CN2C(=O)N(c3cc(OC)cc(OC)c3)Cc3cnc(Nc4ccc(N5CCN(C)CC5)cc4)nc32)cc1`
0.61

Follow-up item: `Cc1nc2ccc(-n3ncc(C(=O)c4cc5ccccc5[nH]4)c3N)cc2[nH]1`
2.11

Follow-up item: C[C@H]1[C@H](C)CC[C@]2(C(=O)O)CC[C@]3(C)C(=CC[C@@H]4[C@@]5(C)C[C@@H](O)[C@H](O)[C@@](C)(CO)[C@@H]5CC[C@]43C)[C@H]12 [Asiatic Acid]
0.72

Follow-up item: `N#Cc1c(Oc2ccc(F)c(NC(=O)Cc3cccc(C(F)(F)F)c3)c2)ccc2nc(NC(=O)C3CC3)sc12`
0.52

Follow-up item: `CC(C)NC(=O)COc1cccc(-c2nc(Nc3ccc4[nH]ncc4c3)c3ccccc3n2)c1`
0.91

Follow-up item: `COc1ccc(S(=O)(=O)N(C(C)=O)c2ccccc2/C=C/c2cc[n+]([O-])cc2)cc1`
-0.3

Follow-up item: `COc1cc(C(=O)N2CCC(N3CCN(C)CC3)CC2)ccc1Nc1ncc2c(n1)N(C)c1ccccc1C(=O)N2C`
0.17

Follow-up item: `CNS(=O)(=O)Nc1nccc(Cc2c(C)c3ccc(Oc4ncccn4)cc3oc2=O)c1F`
0.24

====

# Tested on: LOC_OS02G08530-cb003
# Method: thermal shift delta Tm vs DMSO control; higher = stronger stabilization (binding)
# Test Settings: 12.5 µM; protein concentration 2 µM
Structures can show the parent of a compound that is named as a salt.
I'd appreciate it if you could supply thermal shift delta Tm values for the items below.
The response must be a number in °C with no trailing unit.

Quick one: thermal shift delta Tm of `C[C@H](Nc1ncnc2nc[nH]c12)c1cc2cccc(Cl)c2c(=O)n1-c1ccccc1` ?
0.77

Follow-up item: `Cc1ccc([N+](=O)[O-])cc1S(=O)(=O)N(C)/N=C/c1cnc2ccc(Br)cn12`
6.04

Follow-up item: `COc1cc2ncnc(Sc3nnc(C)s3)c2cc1OC`
0.96

Follow-up item: `COc1c(C)c(C(=O)c2ccc(N)c(C(=O)O)c2)n2ccccc12`
0.95

Follow-up item: `COCCOc1ccc2c(c1)ncn2-c1ccc2cccc(N3CCC(N)CC3)c2n1`
3.85

Follow-up item: `C[C@@H](NC(=O)c1ncnc(N)c1Cl)c1ncc(C(=O)Nc2cc(C(F)(F)F)c(Cl)cn2)s1`
0.67

Follow-up item: `CN1C(=O)[C@@H](NC(=O)c2n[nH]c(Cc3ccccc3)n2)COc2ccccc21`
0.55

Follow-up item: `O=c1cc(-c2cccc3c2Sc2ccccc2S3)oc(N2CCOCC2)c1`
0.47

Follow-up item: CC(C)CCN1c2nc(Nc3cc(F)c(O)c(F)c3)ncc2N(C)C(=O)C1C (centres undefined)
2.78

Follow-up item: `CN1CCC(COc2cnc(-c3cccc(Cn4nc(-c5cccc(C#N)c5)ccc4=O)c3)nc2)CC1`
0.12

Follow-up item: `COc1cc(OC)cc(-c2cc3cnc(N)nc3nc2NC(=O)NC(C)(C)C)c1`
0.52

Follow-up item: `COc1ccc(COc2ccc(Cc3cnc(N)nc3N)cc2OC)cc1`
-0.15

Follow-up item: `NC1(Cc2ccc(Cl)cc2)CCN(c2ncnc3[nH]ccc23)CC1`
1.24

Follow-up item: `Cc1ccc(NC(=O)c2cccc(C(C)(C)C#N)c2)cc1Nc1ccc2ncn(C)c(=O)c2c1`
0.95

Follow-up item: `CS(=O)(=O)CCNCc1ccc(-c2ccc3ncnc(Nc4ccc(OCc5cccc(F)c5)c(Cl)c4)c3c2)o1`
0.58

Follow-up item: `COc1cc2ncnc(Oc3cccc(NC(=O)Nc4cc(C(C)(C)C(F)(F)F)on4)c3)c2cc1OC`
1.04

Follow-up item: `Cc1ncc(CCCN(C)C)cc1Nc1ncc2c(n1)-c1ccc(C(F)(F)F)cc1NC(=S)C2`
1.89

Follow-up item: `Cn1c(=O)c(Oc2ccc(F)cc2F)cc2cnc(NC(CCO)CCO)nc21`
1.22

Follow-up item: `CC(C)(C)c1cc(/C=C(\C#N)C(N)=S)cc(C(C)(C)C)c1O`
2.78

Follow-up item: Nc1ncccc1-c1nc2ccc(-c3ccccc3)nc2n1-c1ccc(C2(N)CCC2)cc1 [Miransertib (ARQ 092) HCl]
0.49

Follow-up item: `N#CCNC(=O)c1ccc(-c2ccnc(Nc3ccc(N4CCOCC4)cc3)n2)cc1`
1.72

Follow-up item: O=C(O[C@@H]1Cc2c(O)cc(O)cc2O[C@@H]1c1cc(O)c(O)c(O)c1)c1cc(O)c(O)c(O)c1 [(-)-Epigallocatechin Gallate]
-2.15

Follow-up item: `NC(=O)c1ncn([C@@H]2O[C@H](CO)[C@@H](O)[C@H]2O)c1N`
0.52

Follow-up item: `Cc1c(C(=O)N2CCOc3ccc(-c4ccc(N)nc4)cc3C2)ccc(S(C)(=O)=O)c1F`
0.91

Follow-up item: `CCNC(=O)C#Cc1ccc2c(C(=Nc3ccc(CN(C)C)cc3)c3ccccc3)c(O)[nH]c2c1`
2.16

Follow-up item: `C=CC(=O)Nc1cccc(C)c1Nc1ncc2cc(-c3c(Cl)c(OC)cc(OC)c3Cl)ccc2n1`
0.7

Follow-up item: `O=C(c1ccc(/C=C/c2n[nH]c3ccccc23)cc1)N1CCNCC1`
4.1

Follow-up item: `CC(C)(CO)n1cc(C(=O)c2cncc(NC(=O)Cc3ccc(Cl)cn3)c2)c2cnc(N)nc21`
0.77

Follow-up item: `Cc1c(NC(=O)c2ccc(C(C)(C)C)cc2)cccc1-c1cn(C)c(=O)c(Nc2ccc(C(=O)N3CCOCC3)cc2)n1`
0.31

Follow-up item: `C[C@H](CN(C)C)Oc1nc(Nc2cc3cccc(Cl)c3cn2)cnc1C#N`
1.68

Follow-up item: `Nc1ncnc2n[nH]c(Nc3ccc(F)cc3)c12`
1.06

Follow-up item: `Cc1ncc(-c2ccnc(Nc3ccc(S(C)(=O)=O)cc3)n2)n1C(C)C`
2.22

Follow-up item: `Cc1cc(Nc2ncnc3ccc(-c4ccc(CNCCS(C)(=O)=O)o4)cc23)ccc1Oc1ccn2ncnc2c1`
2.32

Follow-up item: `C=CC(=O)Nc1cc(Nc2nccc(-c3cn(C)c4ccccc34)n2)c(OC)cc1N(C)CCN(C)C`
3.79

The origin of these recorded values is the supplement of paper PMC9694430.
